Test system: COLO 205
Experiment: NCI tumour cell line growth inhibition, 48 h
Active and inactive are the calls of the source. Cut-off read from the data, not from the text of the source: active = GI50 up to about 1.1 µM and inactive = higher.
Allowed answers: yes for active, no for inactive

Answered examples (5):
Prompt: // param item: O=C1OCc2nc3c(c(-c4ccccc4C(F)(F)F)c21)C(=O)OC3 ; yields the recorded call
Completion: no

Prompt: // param item: CCOc1ccc(N/C(=C(/C(Cl)=C(/Cl)N(CC)CC)[N+](=O)[O-])n2nnc3ccccc32)cc1 ; yields the recorded call
Completion: no

Prompt: // param item: S=C(NCCc1ccccn1)N/N=C/c1ccccn1 ; yields the recorded call
Completion: yes

Prompt: // param item: CC(=O)OCC1OC(n2c(N)c(C#N)c(-c3ccc(C)cc3)c(C#N)c2=S)C(OC(C)=O)C(OC(C)=O)C1OC(C)=O (stereo not given) ; yields the recorded call
Completion: no

Prompt: // param item: CC1Cc2c(Br)nc(N)nc2NC1=O (stereo not given) ; yields the recorded call
Completion: no

New cases:
Prompt: // param item: O[C@@H]1[C@H](OC2c3ccccc3-c3ccccc32)[C@H](OCc2ccccc2)[C@@H]2OC[C@H]1O2 ; yields the recorded call
Completion: no

Prompt: // param item: C[C@]12CCc3nonc3C1CC[C@@H]1C2CC[C@]2(C)NC(=O)CCC12 (stereo not given in full) ; yields the recorded call
Completion: no

Prompt: // param item: COC1(OC)CC(CO)(CNc2nc(N)nc(Cl)c2C=O)C1 ; yields the recorded call
Completion: no

Prompt: // param item: Cc1cc(C)c2c(=N)c3ccccc3n(CCCCCCn3c4ccccc4c(=N)c4c(C)cc(C)nc43)c2n1 ; yields the recorded call
Completion: no

Prompt: // param item: CN(C)CCNC(=O)c1cccc2c(NCCN(C)C)c3ccccc3nc12 ; yields the recorded call
Completion: no

Prompt: // param item: Nc1ncnc2c1ncn2CCCCC(=O)O ; yields the recorded call
Completion: no

Prompt: // param item: O=C(/C=C/c1ccc(O)c(O)c1)OCCc1ccc2ccccc2c1 ; yields the recorded call
Completion: no

Prompt: // param item: CSC1=N/C(=C\c2ccc(Cl)cc2)C(=O)N1CN1CCCCC1 ; yields the recorded call
Completion: no

Prompt: // param item: NNC(=O)c1ccccc1NC(=O)/C(=C/c1ccccc1O)NC(=O)c1ccccc1 ; yields the recorded call
Completion: no

Prompt: // param item: Cc1cc2c(cc1-c1cc3c(cc1C)C(C(C)C)=C(O)C(=O)/C3=C\Nc1ccccn1)/C(=C/Nc1ccccn1)C(=O)C(O)=C2C(C)C ; yields the recorded call
Completion: no

----------
System: MOLT-4
Experiment: NCI tumour cell line growth inhibition, 48 h
Active and inactive are the calls of the source. Cut-off read from the data, not from the text of the source: active = GI50 up to about 1.1 µM and inactive = higher.
Allowed answers: label 1 = active, label 0 = inactive

Prompt: // param item: S=C(NCCc1ccccn1)N/N=C/c1ccccn1 ; yields the recorded call
Completion: label 1

Prompt: // param item: CC(/C=C/C(=O)c1sc(-n2nc(-c3ccccc3)cc2-c2ccccc2)nc1C)=C\c1ccccc1 ; yields the recorded call
Completion: label 0

Prompt: // param item: COC(=O)c1nc(-c2nc(CCNC(=O)OC(C)(C)C)sc2Cl)sc1Cl ; yields the recorded call
Completion: label 0

Prompt: // param item: CC(=O)OC(C)(C)/C=C/C(=O)[C@](C)(O)[C@H]1[C@H](O)C[C@@]2(C)[C@@H]3CC=C4[C@@H](C[C@H](O)[C@H](O)C4(C)C)[C@]3(C)C(=O)C[C@]12C ; yields the recorded call
Completion: label 1

----------
Test system: M14
Assay: NCI tumour cell line growth inhibition, 48 h
Activity calls are given as the source filed them. No stated cut-off is given here; in the data, active = GI50 up to about 1.1 µM and inactive = higher. Peptide text beside a SMILES is read from it. * marks the point of attachment. X27 = Clc1c(Cl)c(Cl)c(O*)c(Cl)c1Cl; Boc = CC(C)(C)OC(=O)*; OBn = c1ccc(CO*)cc1; Bn = c1ccc(C*)cc1
Allowed answers: y for active, n for inactive

Answered examples (5):
Prompt: // param item: Cc1ccc(S(=O)(=O)NC(=O)NCC(=O)O)cc1 ; yields the recorded call
Completion: n

Prompt: // param item: O=C1C[C@@H](c2ccccc2)NCCCCN(O)CCCN1 ; yields the recorded call
Completion: n

Prompt: // param item: O=c1cc(CBr)c2ccc(O)cc2o1 ; yields the recorded call
Completion: n

Prompt: // param item: CC1=C(O)C(=O)C=C2C1=CC=C1[C@@]2(C)CC[C@@]2(C)[C@@H]3C[C@](C)(C(=O)O)CC[C@]3(C)CC[C@]12C ; yields the recorded call
Completion: y

Prompt: // param item: CN(C)CCCn1cnc2cc(Cl)c(Cl)cc21 ; yields the recorded call
Completion: n

New cases:
Prompt: // param item: CCCNC(=S)N/C=C1/C(=O)C=C(C)OC1=O ; yields the recorded call
Completion: n

Prompt: // param item: COc1ccc(-c2c(C(C)=O)c(-c3ccccc3)n(C3OC(COC(C)=O)C(OC(C)=O)C(OC(C)=O)C3OC(C)=O)c(=S)c2C#N)cc1 (centres undefined) ; yields the recorded call
Completion: n

Prompt: // param item: O=C1c2c(Br)sc(Br)c2[C@H]2OC(=S)N[C@@H]12 ; yields the recorded call
Completion: n

Prompt: // param item: O=Cc1cccc2c1Oc1c(cccc1C(=O)O)S2 ; yields the recorded call
Completion: n

Prompt: // param item: CC(C)CC(NC(=O)C(CCC(=O)OCc1ccccc1)NC(=O)OC(C)(C)C)C(=O)NC(COCc1ccccc1)C(=O)NC(Cc1ccccc1)C(=O)Oc1c(Cl)c(Cl)c(Cl)c(Cl)c1Cl (centres undefined) (Boc-E(OBn)LS(Bn)F-X27; configuration not given here) ; yields the recorded call
Completion: n

Prompt: // param item: COc1cc2c3c(c1OC)-c1cc4c(cc1CC3(C#N)N(C(=O)c1ccccc1)CC2)OCO4 (centres undefined) ; yields the recorded call
Completion: n

Prompt: // param item: CC(O)(CCCCCl)c1nc2ccccc2s1 (centres undefined) ; yields the recorded call
Completion: n

Prompt: // param item: CCN(c1ccc(Br)cc1)c1c(Br)c(=O)nc2ccccn12 ; yields the recorded call
Completion: n

Prompt: // param item: Cc1c2c(cc3c1C(=O)C(=O)C1=C3OC[C@@H]1C)C(C)(C)CCC2 ; yields the recorded call
Completion: n

Prompt: // param item: OC1(c2ccc(Cl)cc2)c2ccc(CN3CCCC3)cc2C2=NCCN21 (centres undefined) ; yields the recorded call
Completion: n

Prompt: // param item: O=C(c1cc2c(C(F)(F)F)onc2c2ccccc12)C(F)(F)F ; yields the recorded call
Completion: n

Prompt: // param item: O=C(O)CCCNS(=O)(=O)c1ccc2ccccc2c1 ; yields the recorded call
Completion: n

Prompt: // param item: Cc1nc(-n2nc(-c3ccccc3)cc2-c2ccccc2)sc1C(=O)CC(=O)C(=O)Nc1ccc(Cl)c(Cl)c1 ; yields the recorded call
Completion: n

Prompt: // param item: COc1ccc(/C=c2/[nH]c(=O)/c(=C\c3ccc(OCc4ccccc4)cn3)[nH]c2=O)cc1 ; yields the recorded call
Completion: n

----------
Give measured GI50 for each item. Keep answers brief.
Test system: DMS-273
Assay: NCI tumour cell line growth inhibition, 48 h
The source made the active and inactive calls. Rule as the data show it: active = GI50 up to about 1.1 µM and inactive = higher.

Tested on DMS-273: CCC(C)C1NC(=O)CNC(=O)C2Cc3c([nH]c4cc(O)ccc34)[S+]([O-])CC(NC(=O)CNC1=O)C(=O)NC(CC(=O)O)C(=O)N1CC(O)CC1C(=O)NC(C(C)C(O)CO)C(=O)N2 (stereo not drawn) . Observed GI50: 2.23 µM (inactive)

Tested on DMS-273: O=C1C2CN(Cc3ccccc3)CC1CN(CC1CC1)C2 . Observed GI50: > 100 µM (inactive)

Consider the additional compound presented here.
Tested on DMS-273: O=C1c2cc3c(cc2[C@@H]2NC4CCCC14O2)OCO3 (stereo partly drawn) . Observed GI50: > 100 µM (inactive)

----------
Give measured GI50 for each item. Keep answers brief.
Test system: OVCAR-8
Test: NCI tumour cell line growth inhibition, 48 h
Activity calls are given as the source filed them. Rule as the data show it: active = GI50 up to about 1.1 µM and inactive = higher.

Take a look at these entries with their results.
# GI50 (compound: C[C@]12CC[C@H]3[C@@H](CCC4=CC(=O)CC[C@@H]43)[C@@H]1CC[C@@H]2OC1(O)C(=O)c2ccccc2C1=O ) is 45.2 µM (inactive)

# GI50 (compound: CCOc1cccc(/C=N\c2ccccc2SSc2ccccc2/N=C\c2cccc(OCC)c2O)c1O ) is 2.52 µM (inactive)

# GI50 (compound: O=C(Cc1nc2ccc(C(=O)c3ccccc3)cc2nc1O)C(=O)Nc1ccccc1[N+](=O)[O-] ) is 33.5 µM (inactive)

# GI50 (compound: C=C(CN(CC)CC)C1(c2ccccc2)CC2(CCCC2)C(=O)O1 (stereo unspecified) ) is > 100 µM (inactive)

# GI50 (compound: O=c1onc2c3ccccc3ncn12 ) is > 100 µM (inactive)

# GI50 (compound: Cc1nn(C(=O)c2ccc(Cl)cc2)c2c1C(c1ccc(O)cc1)SC(=N)N2 (stereo unspecified) ) is > 10 µM (inactive)

# GI50 (compound: COc1ccc(OC)c(CCc2cc(OC)c(OC)cc2C)c1 ) is 48.5 µM (inactive)

# GI50 (compound: O=C1c2ccsc2-c2cccc3cccc1c23.O=C1c2sccc2-c2cccc3cccc1c23 ) is 4.94 µM (inactive)

Parameters: items (list). Returns: GI50 for each item.
1. COCC1OC(OC2OCC3OC4(OCC(O)(C(C)OC)C5OCOC54)OC3C2OC)C(OC)C(O)C1OC1OC(C)C(OC)C(OC2OC(C)C3OC4(CC(O)C(OC5CC(OC6CC(C)([N+](=O)[O-])C(OC)C(C)O6)C(OC(=O)c6c(C)c(Cl)c(O)c(Cl)c6OC)C(C)O5)C(C)O4)OC3(C)C2O)C1O (stereo unspecified)
2. N#Cc1c(-c2ccc(Cl)cc2)cc(-c2ccc(Nc3ccnc4cc(C(F)(F)F)ccc34)cc2)nc1N
3. CCC(C)C1NC(=O)CNC(=O)C2Cc3c([nH]c4cc(O)ccc34)[S+]([O-])CC(NC(=O)CNC1=O)C(=O)NC(CC(=O)O)C(=O)N1CC(O)CC1C(=O)NC(C(C)C(O)CO)C(=O)N2 (stereo unspecified)
4. CN(C)c1ccc(/C=C(\NC(=O)c2ccccc2)C2NC(Cc3c[nH]c4ccccc34)C(=O)O2)cc1 (stereo unspecified)
5. CC(=O)Nc1ccc2nc(-c3cccc(F)c3)cc(O)c2c1
6. COc1cc(/C=C2/SC(c3ccccc3)N(c3cccc([N+](=O)[O-])c3)C2=O)cc(OC)c1OC (stereo unspecified)
7. COC(=O)/C=C(\CC(=O)OC)n1nnnc1[C@@H]1C[C@H](COC(c2ccccc2)(c2ccccc2)c2ccccc2)[C@H]2OC(C)(C)O[C@H]21

Completion:
["> 100 µM (inactive)", "> 100 µM (inactive)", "3.7 µM (inactive)", "5.98 µM (inactive)", "13.4 µM (inactive)", "> 100 µM (inactive)", "> 100 µM (inactive)"]

# GI50 (compound: NNC(=O)Cc1cccnc1 ) is > 100 µM (inactive)

Where do these numbers come from? They come from ChEMBL document CHEMBL1201862.
